Parameter: IC50. Scope: all listed entries.
Molecular target: Recombinant human Met (c-Met) (Homo sapiens, UniProt P08581)
Construct: purchased Invitrogen PV3143
Sequence (P08581 956-1390 limits assumed): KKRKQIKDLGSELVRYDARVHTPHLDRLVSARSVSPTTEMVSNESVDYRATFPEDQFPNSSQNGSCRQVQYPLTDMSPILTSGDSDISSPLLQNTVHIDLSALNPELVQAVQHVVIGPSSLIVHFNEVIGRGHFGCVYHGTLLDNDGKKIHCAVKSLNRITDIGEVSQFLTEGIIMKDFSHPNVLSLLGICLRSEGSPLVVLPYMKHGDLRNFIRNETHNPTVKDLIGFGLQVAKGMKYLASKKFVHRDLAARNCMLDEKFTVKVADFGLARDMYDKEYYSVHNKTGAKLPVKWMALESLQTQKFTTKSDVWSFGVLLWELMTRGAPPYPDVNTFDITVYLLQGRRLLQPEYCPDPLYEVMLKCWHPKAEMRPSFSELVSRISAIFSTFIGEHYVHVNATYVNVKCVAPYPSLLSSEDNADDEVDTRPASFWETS
Test: Inhibition of c-Met kinase activity using Transcreener FP assay
Type: biochemical
Conditions: Poly E4Y substrate, 28° C. 45 min, read-out: IC50, inhibition of c-Met kinase activity
measured_metric: IC50

COc1ccc(-c2cnc3nnn(Cc4ccc5nccn5c4)c3n2)cc1	0.001 to 0.1 µM
FC(F)(F)Cn1cc(-c2ccc3nnn(Cc4ccc5ncccc5c4)c3n2)cn1	0.001 to 0.1 µM
c1cnc2ccc(Cn3nnc4ncc(Nc5cc[nH]n5)nc43)cc2c1	0.001 to 0.1 µM
COc1cncc(Nc2cnc3nnn(Cc4ccc5ncccc5c4)c3n2)c1	0.001 to 0.1 µM
Cc1cccc(Nc2cnc3nnn(Cc4ccc5ncccc5c4)c3n2)n1	0.001 to 0.1 µM
c1cnc2ccc(Cn3nnc4ncc(Nc5ccnc(NC6CCOC6)c5)nc43)cc2c1 (stereo not drawn)	0.001 to 0.1 µM
Cn1ccc(Nc2ccc3nnn(Cc4ccc5ncccc5c4)c3n2)n1	0.001 to 0.1 µM
COCCOc1cccc(-c2ccc3nnn(Cc4ccc5ncccc5c4)c3n2)c1	0.1 to 1 µM
O[C@@H]1CCC[C@H]1Nc1ccc2nnn(Cc3ccc4ncccc4c3)c2n1	0.1 to 1 µM
COc1cccc(-c2ccc3nnn(Cc4c[nH]c5ncccc45)c3n2)c1	0.001 to 0.1 µM
Nc1cccc(Oc2cnc3nnn(Cc4ccc5ncccc5c4)c3n2)n1	0.001 to 0.1 µM
CCn1cc(-c2cnc3nnn(Cc4csc5ncccc45)c3n2)cn1	0.1 to 1 µM
c1cc(Nc2cnc3nnn(Cc4ccc5ncccc5c4)c3n2)nc(N2CCOCC2)c1	0.001 to 0.1 µM
OCCn1cc(-c2cnc3nnn(Cc4cc5cccnc5s4)c3n2)cn1	0.1 to 1 µM
Cn1cc(-c2ccc3nnn(Cc4cc5cccnc5cc4F)c3n2)cn1	0.001 to 0.1 µM
CCn1cc(-c2ccc3nnn(Cc4n[nH]c5ncccc45)c3n2)cn1	0.001 to 0.1 µM
COCCOc1ccnc(Nc2cnc3nnn(Cc4ccc5ncccc5c4)c3n2)c1	0.001 to 0.1 µM
CC(c1cc2[nH]ncc2s1)n1nnc2ncc(-c3cnn(C)c3)nc21 (stereo not drawn)	0.1 to 1 µM
FC(F)(F)Cn1cc(-c2cnc3nnn(Cc4ccn5nccc5n4)c3n2)cn1	0.1 to 1 µM
CC(=O)Nc1cc(-c2cnn(C)c2)nc2c1nnn2Cc1ccc2ncccc2c1	0.1 to 1 µM
FC(F)(F)c1cccc(Nc2cnc3nnn(Cc4ccc5ncccc5c4)c3n2)n1	0.001 to 0.1 µM
CN(c1ccncc1)c1cnc2nnn(Cc3ccc4ncccc4c3)c2n1	0.001 to 0.1 µM
CC(C)OCc1cnc2ccc(Cn3nnc4ncc(-c5cnn(C)c5)nc43)cn12	0.001 to 0.1 µM
COCCOc1cccc(Nc2cnc3nnn(Cc4ccc5ncccc5c4)c3n2)c1	0.001 to 0.1 µM
COCCn1cc(-c2cnc3nnn(Cc4cc5cnccc5s4)c3n2)cn1	0.1 to 1 µM
Cn1cc(-c2cnc3nnn(Cc4ccc5ncsc5c4)c3n2)cn1	0.001 to 0.1 µM
Cn1cc(-c2cnc3nnn(Cc4ccc5ncc(C=O)n5c4)c3n2)cn1	0.001 to 0.1 µM
Cn1cc(-c2cnc3nnn(Cc4ccc5ncc(Br)n5c4)c3n2)cn1	0.001 to 0.1 µM
CNC(=O)c1ccnc(Nc2cnc3nnn(Cc4ccc5ncccc5c4)c3n2)c1	0.1 to 1 µM
Cc1cccc(Oc2cnc3nnn(Cc4ccc5ncccc5c4)c3n2)n1	0.001 to 0.1 µM
c1cn2cc(Cn3nnc4ncc(-c5cnn(C6CCNCC6)c5)nc43)ccc2n1	0.001 to 0.1 µM
OCCn1cc(-c2cnc3nnn(Cc4ccc5nccn5n4)c3n2)cn1	0.001 to 0.1 µM
Cc1cc(Nc2cnc3nnn(Cc4ccc5ncccc5c4)c3n2)on1	0.001 to 0.1 µM
c1cnc2ccc(Cn3nnc4ccc(OC5CCOCC5)nc43)cc2c1	0.1 to 1 µM
CCC(c1ccc2nccn2c1)n1nnc2ncc(-c3cnn(C)c3)nc21 (stereo not drawn)	0.001 to 0.1 µM
c1cnc2ccc(Cn3nnc4ncc(Nc5ccnc(O[C@@H]6CCOC6)c5)nc43)cc2c1	0.001 to 0.1 µM
